Biological target: vanilloid receptor (Rattus norvegicus, UniProt O35433)
Construct: DRG nerve cells from the primary culture of 2 days were equilibrated; endogenous in cells; host or cells: primary culture of dorsal root ganglion neurons from neonatal SD rats
Sequence (O35433 whole entry): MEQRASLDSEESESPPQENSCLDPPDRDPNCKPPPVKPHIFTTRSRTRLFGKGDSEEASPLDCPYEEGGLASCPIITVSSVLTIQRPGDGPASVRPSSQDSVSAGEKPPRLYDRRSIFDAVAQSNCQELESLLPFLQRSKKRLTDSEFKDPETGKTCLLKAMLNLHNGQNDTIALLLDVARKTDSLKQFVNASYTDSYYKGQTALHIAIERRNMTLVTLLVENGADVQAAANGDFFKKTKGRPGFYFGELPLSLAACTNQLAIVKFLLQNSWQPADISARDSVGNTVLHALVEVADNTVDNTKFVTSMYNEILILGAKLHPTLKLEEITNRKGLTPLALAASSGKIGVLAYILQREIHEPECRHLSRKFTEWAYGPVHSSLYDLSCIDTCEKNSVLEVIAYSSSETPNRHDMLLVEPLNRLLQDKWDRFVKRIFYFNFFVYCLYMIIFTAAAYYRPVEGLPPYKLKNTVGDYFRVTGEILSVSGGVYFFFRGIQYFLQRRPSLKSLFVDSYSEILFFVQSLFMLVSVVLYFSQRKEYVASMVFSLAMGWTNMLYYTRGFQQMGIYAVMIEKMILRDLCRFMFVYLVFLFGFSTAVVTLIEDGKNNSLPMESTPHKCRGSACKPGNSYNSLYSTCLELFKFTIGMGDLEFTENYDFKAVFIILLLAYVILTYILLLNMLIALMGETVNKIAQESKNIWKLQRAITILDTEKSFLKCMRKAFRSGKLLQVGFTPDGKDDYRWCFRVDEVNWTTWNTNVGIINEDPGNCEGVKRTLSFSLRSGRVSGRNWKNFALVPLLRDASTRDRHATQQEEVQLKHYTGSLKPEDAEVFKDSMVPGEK
Assay: 45Ca influx test in cultured neonatal rat DRG neurons, inhibition of capsaicin response
Type: cell-based
Settings: neonatal rat DRG neurons, capsaicin 0.5 μM, 45Ca influx; read-out: Antagonist Calcium Uptake Test (IC50)
REPORTED ENDPOINT: IC50 (nM)
Reply with just the number (in nM).

Suppose we examine the compound Cc1cc(CNC(=O)/C=C/c2ccc(C(F)(F)F)nc2CC(C)C)ccc1NS(C)(=O)=O [Example 174] ; what IC50 value has been reported?
70

# repeat for C#Cc1cc(CNC(=O)C=Cc2ccc(C(F)(F)F)nc2C#C)cc(F)c1NS(C)(=O)=O [Example 145]
1900

Then what about the compound CC(C)(C)c1ccc(/C=C/C(=O)NCc2ccc(NS(C)(=O)=O)c(Cl)c2)cn1 [Examples 2] ?
1300

How about C#Cc1cc(CNC(=O)/C=C/c2ccc(C(F)(F)F)nc2SCCC)cc(F)c1NS(C)(=O)=O [Example 185] ?
280

* * *

Biological target: vanilloid receptor (Rattus norvegicus)
Construct: DRG nerve cells from the primary culture of 2 days were equilibrated; endogenous in cells; host or cells: primary culture of dorsal root ganglion neurons from neonatal SD rats
Test: 45Ca influx test in cultured neonatal rat DRG neurons, inhibition of capsaicin response
Assay type: cell-based
Details: neonatal rat DRG neurons, capsaicin 0.5 μM, 45Ca influx; read-out: Antagonist Calcium Uptake Test (IC50)
REPORTED ENDPOINT: IC50 (nM)
# unit: nM | format: bare number

IC50 for CCCCCc1nc(C(F)(F)F)ccc1/C=C/C(=O)N[C@H](C)c1ccc(NS(C)(=O)=O)c(F)c1 ?
54

Also, CC(C)Cc1nc(C(F)(F)F)ccc1/C=C/C(=O)N[C@H](C)c1ccc(NS(C)(=O)=O)c(F)c1 please.
24

Same thing, different compound: C#Cc1cc(CNC(=O)/C=C/c2ccc(C(C)(C)C)nc2N2CCOCC2)cc(F)c1NS(C)(=O)=O
210

Also C#Cc1cc(CNC(=O)/C=C/c2ccc(C(F)(F)F)nc2NCC)cc(F)c1NS(C)(=O)=O ?
25

Further, for CCNc1nc(C(F)(F)F)ccc1/C=C/C(=O)N[C@H](C)c1ccc(NS(C)(=O)=O)c(F)c1 ?
10

Input CS(=O)(=O)Nc1ccc(CNC(=O)/C=C/c2ccc(C(F)(F)F)nc2NC2CCCC2)cc1F
280

* * *

Biological target: vanilloid receptor (Rattus norvegicus, UniProt O35433)
Construct: DRG nerve cells from the primary culture of 2 days were equilibrated; endogenous in cells; host or cells: primary culture of dorsal root ganglion neurons from neonatal SD rats
Assay: 45Ca influx test in cultured neonatal rat DRG neurons, inhibition of capsaicin response
Assay type: cell-based
Settings: neonatal rat DRG neurons, capsaicin 0.5 μM, 45Ca influx; read-out: Antagonist Calcium Uptake Test (IC50)
pIC50: −log10 of the molar value.
Would you please tag the item met when its pIC50 is 7 or above, and not met when it is below?

Please check the record C#Cc1cc(CNC(=O)/C=C/c2ccc(C(F)(F)F)nc2N2CCC(C(=O)OCC)CC2)cc(F)c1NS(C)(=O)=O [Example 110] and state if its pIC50 is at or above 7.
not met

Also need C#Cc1cc(CNC(=O)/C=C/c2ccc(C(F)(F)F)nc2Oc2ccc(F)cc2)cc(F)c1NS(C)(=O)=O [Example 82] , thanks.
not met

Then C#Cc1cc(CNC(=O)/C=C/c2ccc(C(F)(F)F)nc2CCCOC)cc(F)c1NS(C)(=O)=O [Example 155] ?
not met

Request: C#Cc1cc(CNC(=O)/C=C/c2ccc(C(F)(F)F)nc2NCCC)cc(F)c1NS(C)(=O)=O [Example 221]
met

How about C#Cc1cc(CNC(=O)/C=C/c2ccc(C(F)(F)F)nc2Sc2ccccc2)cc(F)c1NS(C)(=O)=O [Example 139] ?
not met

Request: C#Cc1cc(CNC(=O)/C=C/c2cnc(OC)cc2C(F)(F)F)cc(F)c1NS(C)(=O)=O [Example 41]
not met

Cool, now C=Cc1cc(CNC(=O)/C=C/c2ccc(C(F)(F)F)nc2N2CCOCC2)ccc1NS(C)(=O)=O [Example 6]
not met

Try this molecule too: CCNc1nc(C(F)(F)F)ccc1/C=C/C(=O)NCc1ccc(NS(C)(=O)=O)c(C)c1 [Example 247]
met

How about this molecule: CC(C)(C)c1ccc(/C=C/C(=O)NCc2ccc(NS(C)(=O)=O)c(F)c2)c(Br)n1 [Example 36]
not met

Ok, now CCOCc1nc(C(F)(F)F)ccc1/C=C/C(=O)NCc1ccc(NS(C)(=O)=O)c(F)c1 [Example 160]
not met

Next molecule: C#Cc1cc(CNC(=O)COc2ccc(Cl)nc2)cc(F)c1NS(C)(=O)=O [Example 35]
not met

Thanks! And C#Cc1cc(CNC(=O)/C=C/c2ccc(C(F)(F)F)nc2OCC(F)(F)F)cc(F)c1NS(C)(=O)=O [Example 84] ?
not met

Consider next the molecule CS(=O)(=O)Nc1c(F)cc(CNC(=O)/C=C/c2ccc(C(F)(F)F)nc2N2CCCC2)cc1C#N [Example 97] in the same way.
not met

Same lookup for CCCCc1nc(C(F)(F)F)ccc1C#CC(=O)NCc1cc(F)c(NS(C)(=O)=O)c(F)c1 [Example 261] , please.
not met

Also, C#Cc1cc(CNC(=O)/C=C/c2ccc(C(F)(F)F)nc2CCC)cc(F)c1NS(C)(=O)=O [Example 206] please.
met

Repeat with CCNc1nc(C(F)(F)F)ccc1/C=C/C(=O)NCc1cc(F)c(NS(C)(=O)=O)c(F)c1 [Example 257]
met

Now consider CC(C)Nc1nc(C(F)(F)F)ccc1/C=C/C(=O)N[C@H](C)c1ccc(NS(C)(=O)=O)c(F)c1 [Example 218] and answer again.
met

Check CCCNc1nc(C(F)(F)F)ccc1/C=C/C(=O)NCc1cc(C)c(NS(C)(=O)=O)c(F)c1 [Example 223] too.
met

Would you kindly repeat that for C#Cc1cc(CNC(=O)/C=C/c2ccc(C(F)(F)F)nc2CC(C)C)cc(F)c1NS(C)(=O)=O [Example 148] ?
met

Now consider Cc1cc(CNC(=O)/C=C/c2ccc(C(F)(F)F)nc2-c2cccc(F)c2)ccc1NS(C)(=O)=O [Example 182] .
not met

COCCNc1nc(C(F)(F)F)ccc1/C=C/C(=O)NCc1cc(F)c(NS(C)(=O)=O)c(F)c1 [Example 204] ?
not met

Follow-up entry: CS(=O)(=O)Nc1ccc(CNC(=O)/C=C/c2ccc(C(F)(F)F)nc2CCc2ccccc2)cc1 [Example 264]
not met

Try the molecule C=CS(=O)(=O)Nc1ccc(CNC(=O)/C=C/c2ccc(C(F)(F)F)nc2CC(C)C)cc1 [Example 269]
not met
